- Assayed target: Histamine H3 receptor (Homo sapiens, UniProt Q9Y5N1)
- Sequence (Q9Y5N1 whole entry): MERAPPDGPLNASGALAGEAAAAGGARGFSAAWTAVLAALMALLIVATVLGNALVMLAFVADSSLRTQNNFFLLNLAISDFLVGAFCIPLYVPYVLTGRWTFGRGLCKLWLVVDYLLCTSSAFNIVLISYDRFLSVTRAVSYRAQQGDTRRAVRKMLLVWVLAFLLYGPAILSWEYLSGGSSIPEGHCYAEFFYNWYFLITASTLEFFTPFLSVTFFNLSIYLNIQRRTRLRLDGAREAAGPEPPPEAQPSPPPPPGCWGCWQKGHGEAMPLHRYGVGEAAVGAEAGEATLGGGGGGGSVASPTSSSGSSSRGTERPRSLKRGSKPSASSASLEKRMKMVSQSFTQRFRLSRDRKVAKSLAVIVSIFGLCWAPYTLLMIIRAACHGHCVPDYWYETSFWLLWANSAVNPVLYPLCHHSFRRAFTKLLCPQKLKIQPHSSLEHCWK
Measure name: Ki

Enquiry: Param item = Cc1ccc(Cn2nc(C(=O)NC3C(C)(C)C4CC[C@@]3(C)C4)cc2-c2ccc(Cl)c(C)c2)cc1 (stereo partly specified) ; retrieve measured Ki.
Return: > 10 µM

----------
- Assayed target: Vasopressin V2 receptor (Homo sapiens, UniProt P30518)
- Sequence (P30518 whole entry): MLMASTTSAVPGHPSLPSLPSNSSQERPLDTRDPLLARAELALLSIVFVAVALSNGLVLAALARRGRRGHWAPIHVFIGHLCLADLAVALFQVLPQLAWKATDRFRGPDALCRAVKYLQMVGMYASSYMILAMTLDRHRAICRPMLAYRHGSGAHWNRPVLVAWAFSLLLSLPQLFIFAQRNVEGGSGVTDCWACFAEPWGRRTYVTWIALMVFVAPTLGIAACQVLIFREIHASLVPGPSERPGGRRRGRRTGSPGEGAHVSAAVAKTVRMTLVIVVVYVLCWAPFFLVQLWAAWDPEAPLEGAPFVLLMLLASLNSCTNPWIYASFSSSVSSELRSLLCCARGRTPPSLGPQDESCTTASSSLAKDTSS
pKi: −log10 of the molar value.
Measure name: pKi

Enquiry: // map Cc1ccc(Cn2nc(C(=O)NC3C(C)(C)C4CC[C@@]3(C)C4)cc2-c2ccc(Cl)c(C)c2)cc1 (stereo partly specified) to recorded pKi (system: Vasopressin V2 receptor (Homo sapiens, UniProt P30518))
Return: < 5.00

----------
- Assayed target: Endothelin receptor type B (Homo sapiens, UniProt P24530)
- Sequence (P24530 whole entry): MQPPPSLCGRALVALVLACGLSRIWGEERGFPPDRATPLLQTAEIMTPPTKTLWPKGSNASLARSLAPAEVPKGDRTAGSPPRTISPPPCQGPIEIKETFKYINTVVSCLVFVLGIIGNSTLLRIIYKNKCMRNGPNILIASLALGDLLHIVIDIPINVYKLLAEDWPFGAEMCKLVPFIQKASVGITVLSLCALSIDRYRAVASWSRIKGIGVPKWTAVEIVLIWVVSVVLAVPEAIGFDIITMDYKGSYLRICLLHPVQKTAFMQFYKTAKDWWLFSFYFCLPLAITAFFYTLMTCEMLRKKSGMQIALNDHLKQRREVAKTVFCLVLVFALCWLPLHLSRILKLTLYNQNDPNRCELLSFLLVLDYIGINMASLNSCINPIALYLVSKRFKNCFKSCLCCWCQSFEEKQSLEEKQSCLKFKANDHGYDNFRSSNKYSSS
Measure name: Ki

Enquiry: Could you tell me which Ki is on file for Cc1ccc(Cn2nc(C(=O)NC3C(C)(C)C4CC[C@@]3(C)C4)cc2-c2ccc(Cl)c(C)c2)cc1 (stereo partly specified) ?
Return: > 10 µM

----------
- Assayed target: 5-hydroxytryptamine receptor 1D (Homo sapiens)
- Sequence (P28221 whole entry): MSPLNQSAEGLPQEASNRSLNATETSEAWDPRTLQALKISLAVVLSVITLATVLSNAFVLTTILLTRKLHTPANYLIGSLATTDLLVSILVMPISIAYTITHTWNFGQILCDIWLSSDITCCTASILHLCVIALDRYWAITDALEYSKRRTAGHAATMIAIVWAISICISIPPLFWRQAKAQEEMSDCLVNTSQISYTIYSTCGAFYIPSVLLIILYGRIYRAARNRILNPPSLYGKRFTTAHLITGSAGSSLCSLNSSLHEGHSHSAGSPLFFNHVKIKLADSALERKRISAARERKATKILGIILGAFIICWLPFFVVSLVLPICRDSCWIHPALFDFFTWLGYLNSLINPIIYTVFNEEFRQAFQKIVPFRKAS
Measure name: Ki

Enquiry: Which Ki value belongs to Cc1ccc(Cn2nc(C(=O)NC3C(C)(C)C4CC[C@@]3(C)C4)cc2-c2ccc(Cl)c(C)c2)cc1 (stereo partly specified) ?
Return: > 10 µM

----------
- Assayed target: 5-hydroxytryptamine receptor 1B (Homo sapiens)
- Sequence (P28222 whole entry): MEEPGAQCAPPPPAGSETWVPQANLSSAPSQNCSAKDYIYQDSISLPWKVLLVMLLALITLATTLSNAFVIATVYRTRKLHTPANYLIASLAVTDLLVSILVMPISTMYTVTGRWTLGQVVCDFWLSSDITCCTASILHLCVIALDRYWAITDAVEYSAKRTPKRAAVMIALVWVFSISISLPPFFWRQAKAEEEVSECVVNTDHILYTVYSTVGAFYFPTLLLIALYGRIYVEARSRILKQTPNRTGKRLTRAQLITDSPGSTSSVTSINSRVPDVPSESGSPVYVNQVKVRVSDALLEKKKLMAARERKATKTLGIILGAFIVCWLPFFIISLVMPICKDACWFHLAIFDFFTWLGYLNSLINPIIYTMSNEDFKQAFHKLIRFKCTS
Measure name: Ki

Enquiry: I am curious: what Ki value has been reported for Cc1ccc(Cn2nc(C(=O)NC3C(C)(C)C4CC[C@@]3(C)C4)cc2-c2ccc(Cl)c(C)c2)cc1 (stereo partly specified) ?
Return: > 10 µM

----------
- Assayed target: Voltage-dependent N-type calcium channel subunit alpha-1B (Homo sapiens, UniProt Q00975)
- Sequence (Q00975 whole entry): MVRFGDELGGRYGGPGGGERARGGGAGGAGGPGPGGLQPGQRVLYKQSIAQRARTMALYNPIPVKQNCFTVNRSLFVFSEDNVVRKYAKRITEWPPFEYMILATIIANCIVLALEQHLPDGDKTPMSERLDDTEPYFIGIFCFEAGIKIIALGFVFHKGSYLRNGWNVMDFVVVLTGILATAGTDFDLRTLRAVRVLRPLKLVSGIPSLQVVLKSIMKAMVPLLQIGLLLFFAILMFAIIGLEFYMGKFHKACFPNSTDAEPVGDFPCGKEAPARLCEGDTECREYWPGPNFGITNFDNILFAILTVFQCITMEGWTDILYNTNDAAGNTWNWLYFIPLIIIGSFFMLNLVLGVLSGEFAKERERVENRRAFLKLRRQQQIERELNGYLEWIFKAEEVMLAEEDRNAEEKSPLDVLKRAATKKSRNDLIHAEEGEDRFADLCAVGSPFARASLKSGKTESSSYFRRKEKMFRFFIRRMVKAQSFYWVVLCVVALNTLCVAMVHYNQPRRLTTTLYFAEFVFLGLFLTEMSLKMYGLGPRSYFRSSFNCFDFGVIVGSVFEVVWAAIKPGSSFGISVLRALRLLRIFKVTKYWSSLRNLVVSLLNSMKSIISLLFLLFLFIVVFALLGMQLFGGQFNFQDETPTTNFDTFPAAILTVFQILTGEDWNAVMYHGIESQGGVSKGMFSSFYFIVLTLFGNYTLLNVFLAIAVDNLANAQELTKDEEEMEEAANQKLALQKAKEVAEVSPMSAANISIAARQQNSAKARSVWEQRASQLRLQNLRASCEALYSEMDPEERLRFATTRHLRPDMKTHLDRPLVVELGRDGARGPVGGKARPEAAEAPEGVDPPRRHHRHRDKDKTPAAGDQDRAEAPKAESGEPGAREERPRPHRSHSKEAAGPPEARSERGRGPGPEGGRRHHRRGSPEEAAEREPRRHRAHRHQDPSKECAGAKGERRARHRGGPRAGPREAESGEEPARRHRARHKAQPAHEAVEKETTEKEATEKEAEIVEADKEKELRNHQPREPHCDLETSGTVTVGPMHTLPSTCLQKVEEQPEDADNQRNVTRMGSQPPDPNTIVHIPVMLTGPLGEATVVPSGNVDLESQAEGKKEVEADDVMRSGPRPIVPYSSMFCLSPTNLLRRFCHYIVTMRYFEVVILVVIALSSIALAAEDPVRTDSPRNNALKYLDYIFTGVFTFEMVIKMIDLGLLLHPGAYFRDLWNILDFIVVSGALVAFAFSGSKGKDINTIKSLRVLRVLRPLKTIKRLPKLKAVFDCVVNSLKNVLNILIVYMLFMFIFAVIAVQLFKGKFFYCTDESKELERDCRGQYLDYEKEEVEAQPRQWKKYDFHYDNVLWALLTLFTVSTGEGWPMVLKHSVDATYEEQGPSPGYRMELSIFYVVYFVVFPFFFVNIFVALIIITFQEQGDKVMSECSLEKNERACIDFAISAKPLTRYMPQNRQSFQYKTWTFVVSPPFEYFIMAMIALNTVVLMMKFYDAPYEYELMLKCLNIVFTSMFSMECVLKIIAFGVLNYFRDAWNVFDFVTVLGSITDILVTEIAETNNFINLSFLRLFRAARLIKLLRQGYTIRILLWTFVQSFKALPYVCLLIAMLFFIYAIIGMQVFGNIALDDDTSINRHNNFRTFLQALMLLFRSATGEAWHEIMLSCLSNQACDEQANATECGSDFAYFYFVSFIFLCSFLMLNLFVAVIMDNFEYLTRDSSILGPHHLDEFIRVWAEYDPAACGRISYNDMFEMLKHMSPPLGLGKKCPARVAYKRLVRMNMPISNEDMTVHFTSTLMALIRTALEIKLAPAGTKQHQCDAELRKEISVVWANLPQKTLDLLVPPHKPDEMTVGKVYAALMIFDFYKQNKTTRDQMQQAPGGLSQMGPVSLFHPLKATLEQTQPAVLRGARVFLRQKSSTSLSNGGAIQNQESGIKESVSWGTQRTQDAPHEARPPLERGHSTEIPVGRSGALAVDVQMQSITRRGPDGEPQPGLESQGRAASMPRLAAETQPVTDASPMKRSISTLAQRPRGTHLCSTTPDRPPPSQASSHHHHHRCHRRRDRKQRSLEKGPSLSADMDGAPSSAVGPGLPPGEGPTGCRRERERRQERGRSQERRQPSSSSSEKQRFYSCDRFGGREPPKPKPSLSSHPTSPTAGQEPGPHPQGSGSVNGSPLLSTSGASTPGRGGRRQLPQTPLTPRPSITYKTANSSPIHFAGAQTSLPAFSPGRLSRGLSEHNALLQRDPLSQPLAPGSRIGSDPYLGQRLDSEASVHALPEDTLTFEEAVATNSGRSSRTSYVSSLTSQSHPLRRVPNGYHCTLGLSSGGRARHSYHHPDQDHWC
pKi: −log10 of the molar value.
Measure name: pKi

Enquiry: Need pKi, item Cc1ccc(Cn2nc(C(=O)NC3C(C)(C)C4CC[C@@]3(C)C4)cc2-c2ccc(Cl)c(C)c2)cc1 (stereo partly specified)
Return: < 5.00

----------
- Assayed target: Gamma-aminobutyric acid receptor subunit alpha-1 (Homo sapiens)
- Sequence (P14867 whole entry): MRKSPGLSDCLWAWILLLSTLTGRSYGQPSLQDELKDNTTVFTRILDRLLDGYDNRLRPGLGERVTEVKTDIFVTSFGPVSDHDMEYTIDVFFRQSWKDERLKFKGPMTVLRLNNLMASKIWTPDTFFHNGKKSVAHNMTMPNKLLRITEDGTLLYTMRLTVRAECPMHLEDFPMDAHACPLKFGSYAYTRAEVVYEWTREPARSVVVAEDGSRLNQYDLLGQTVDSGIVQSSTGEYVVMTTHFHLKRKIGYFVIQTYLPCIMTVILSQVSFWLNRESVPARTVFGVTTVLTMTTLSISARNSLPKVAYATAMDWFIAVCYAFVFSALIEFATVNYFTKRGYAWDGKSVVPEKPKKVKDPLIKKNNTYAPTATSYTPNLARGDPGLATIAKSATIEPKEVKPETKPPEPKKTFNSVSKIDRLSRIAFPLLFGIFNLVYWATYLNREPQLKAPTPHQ
pKi: −log10 of the molar value.
Measure name: pKi

Enquiry: // pKi lookup, key: Cc1ccc(Cn2nc(C(=O)NC3C(C)(C)C4CC[C@@]3(C)C4)cc2-c2ccc(Cl)c(C)c2)cc1 (stereo partly specified)
Return: < 5.00

----------
- Assayed target: UniProt P47901
- Sequence (P47901 whole entry): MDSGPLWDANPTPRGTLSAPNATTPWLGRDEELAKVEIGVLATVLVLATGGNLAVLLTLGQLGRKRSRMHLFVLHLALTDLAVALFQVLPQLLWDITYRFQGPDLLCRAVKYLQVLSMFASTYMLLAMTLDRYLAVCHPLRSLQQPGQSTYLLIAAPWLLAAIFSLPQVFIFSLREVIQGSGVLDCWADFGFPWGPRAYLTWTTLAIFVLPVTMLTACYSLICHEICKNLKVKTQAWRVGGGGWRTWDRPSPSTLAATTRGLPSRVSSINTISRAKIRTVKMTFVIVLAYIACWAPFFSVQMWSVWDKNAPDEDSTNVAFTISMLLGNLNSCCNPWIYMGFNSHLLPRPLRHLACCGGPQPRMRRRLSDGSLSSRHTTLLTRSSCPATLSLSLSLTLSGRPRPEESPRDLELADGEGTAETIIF
pKi: −log10 of the molar value.
Measure name: pKi

Enquiry: Give UniProt P47901 pKi for Cc1ccc(Cn2nc(C(=O)NC3C(C)(C)C4CC[C@@]3(C)C4)cc2-c2ccc(Cl)c(C)c2)cc1 (stereo partly specified)
Return: < 5.00

----------
- Assayed target: Muscarinic acetylcholine receptor M4 (Homo sapiens, UniProt P08173)
- Sequence (P08173 whole entry): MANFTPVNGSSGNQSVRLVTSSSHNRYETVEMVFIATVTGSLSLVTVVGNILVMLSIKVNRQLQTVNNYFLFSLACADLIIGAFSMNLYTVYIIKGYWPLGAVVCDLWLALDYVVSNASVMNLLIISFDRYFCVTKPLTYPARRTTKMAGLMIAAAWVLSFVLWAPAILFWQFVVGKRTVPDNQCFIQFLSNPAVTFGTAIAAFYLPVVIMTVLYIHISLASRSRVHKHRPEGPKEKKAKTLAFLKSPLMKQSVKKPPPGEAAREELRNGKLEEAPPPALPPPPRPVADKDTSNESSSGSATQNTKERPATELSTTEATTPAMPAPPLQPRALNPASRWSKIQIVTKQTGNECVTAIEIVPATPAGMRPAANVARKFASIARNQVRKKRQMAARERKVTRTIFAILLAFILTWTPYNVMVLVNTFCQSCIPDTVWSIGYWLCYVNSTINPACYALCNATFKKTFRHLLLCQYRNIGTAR
Measure name: Ki

Enquiry: Look up Ki: Cc1ccc(Cn2nc(C(=O)NC3C(C)(C)C4CC[C@@]3(C)C4)cc2-c2ccc(Cl)c(C)c2)cc1 (stereo partly specified)
Return: > 10 µM

----------
- Assayed target: Pro-thyrotropin-releasing hormone (Homo sapiens)
- Sequence (P20396 whole entry): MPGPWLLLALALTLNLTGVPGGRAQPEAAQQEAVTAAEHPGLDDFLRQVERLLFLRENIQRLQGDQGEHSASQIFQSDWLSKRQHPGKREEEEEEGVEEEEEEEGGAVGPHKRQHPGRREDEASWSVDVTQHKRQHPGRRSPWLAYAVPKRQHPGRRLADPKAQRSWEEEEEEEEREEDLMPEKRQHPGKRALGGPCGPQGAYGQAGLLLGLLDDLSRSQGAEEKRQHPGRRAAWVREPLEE
Measure name: Ki

Enquiry: Any idea what its Ki is? The molecule is Cc1ccc(Cn2nc(C(=O)NC3C(C)(C)C4CC[C@@]3(C)C4)cc2-c2ccc(Cl)c(C)c2)cc1 (stereo partly specified)
Return: > 10 µM

----------
- Assayed target: Substance-K receptor (Homo sapiens)
- Sequence (P21452 whole entry): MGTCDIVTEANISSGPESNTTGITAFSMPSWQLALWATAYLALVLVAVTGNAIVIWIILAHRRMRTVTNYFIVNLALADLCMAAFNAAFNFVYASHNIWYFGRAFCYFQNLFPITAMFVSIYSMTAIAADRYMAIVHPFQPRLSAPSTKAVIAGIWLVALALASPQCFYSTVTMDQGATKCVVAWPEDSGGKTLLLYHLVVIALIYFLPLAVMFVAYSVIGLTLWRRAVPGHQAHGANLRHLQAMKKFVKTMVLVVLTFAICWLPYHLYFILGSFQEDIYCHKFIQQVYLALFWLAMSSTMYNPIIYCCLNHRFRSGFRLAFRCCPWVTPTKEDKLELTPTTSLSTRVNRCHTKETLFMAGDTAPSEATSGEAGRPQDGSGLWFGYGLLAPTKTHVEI
Measure name: Ki

Enquiry: Substance-K receptor (Homo sapiens) / Ki / Cc1ccc(Cn2nc(C(=O)NC3C(C)(C)C4CC[C@@]3(C)C4)cc2-c2ccc(Cl)c(C)c2)cc1 (stereo partly specified) : value?
Return: > 10 µM

----------
- Assayed target: Protein kinase C alpha type (Homo sapiens, UniProt P17252)
Measure name: Ki

Enquiry: Bench note: what Ki did Cc1ccc(Cn2nc(C(=O)NC3C(C)(C)C4CC[C@@]3(C)C4)cc2-c2ccc(Cl)c(C)c2)cc1 (stereo partly specified) show?
Return: > 10 µM

----------
- Assayed target: Galanin peptides (Homo sapiens, UniProt P22466)
- Sequence (P22466 whole entry): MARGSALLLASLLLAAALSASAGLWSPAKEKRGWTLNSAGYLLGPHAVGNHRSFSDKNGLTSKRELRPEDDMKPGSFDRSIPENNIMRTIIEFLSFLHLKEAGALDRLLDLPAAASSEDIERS
Measure name: Ki

Enquiry: Look up Ki with Galanin peptides (Homo sapiens, UniProt P22466) for this compound: Cc1ccc(Cn2nc(C(=O)NC3C(C)(C)C4CC[C@@]3(C)C4)cc2-c2ccc(Cl)c(C)c2)cc1 (stereo partly specified)
Return: > 10 µM

----------
- Assayed target: 5-hydroxytryptamine receptor 2C (Homo sapiens)
- Sequence (P28335 whole entry): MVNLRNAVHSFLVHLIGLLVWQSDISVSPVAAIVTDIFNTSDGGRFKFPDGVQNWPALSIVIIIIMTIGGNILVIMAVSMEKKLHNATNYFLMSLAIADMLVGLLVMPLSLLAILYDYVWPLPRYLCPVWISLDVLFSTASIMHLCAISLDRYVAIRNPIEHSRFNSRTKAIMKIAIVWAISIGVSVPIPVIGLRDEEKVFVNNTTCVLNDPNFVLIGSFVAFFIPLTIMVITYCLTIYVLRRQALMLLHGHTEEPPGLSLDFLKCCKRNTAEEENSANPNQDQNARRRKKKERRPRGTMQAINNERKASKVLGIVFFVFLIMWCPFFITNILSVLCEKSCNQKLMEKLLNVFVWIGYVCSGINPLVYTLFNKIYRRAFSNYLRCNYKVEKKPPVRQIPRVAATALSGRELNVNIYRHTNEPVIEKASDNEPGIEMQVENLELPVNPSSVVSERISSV
Measure name: Ki

Enquiry: Consider the compound Cc1ccc(Cn2nc(C(=O)NC3C(C)(C)C4CC[C@@]3(C)C4)cc2-c2ccc(Cl)c(C)c2)cc1 (stereo partly specified) and give its measured Ki.
Return: > 10 µM
